Biological target: RSV F protein of subtype A (strain A2) on recombinant mKate-RSV virus (Respiratory syncytial virus subtype A …, UniProt P03420 26-574)
Test: cell-based or functional assay
Neut IC50 (µg/ml) subtype A values, listed per item

[
  {
    "BINDER": "ADI-18931 (antibody, V domains shown, full-length IgG from yeast; also called Antibody Number 285; Ab # 285) VH: EVQLVESGGGLQKPGRSLRLSCSASGFTFGDYAMSWFRQAPGKGLEWVGFIRSKAYVGTAEYAASVKGRFTISRDDSKSIAYLHMNSLKTEDTAVYYCTRDDILTGFYDRSYYYGIHVWGQGTTVTVSS VL: EIVMTQSPVTLSVSPGERATLSCRASQSVNSNLAWYQKKPGQAPRLLIYSASTRATGVPARFSGSGSGTEFTLTVSSLQSEDFAVYYCQQYDNWPPYTFGQGTKVEIK",
    "LIMIT SIGN": ">",
    "Neut IC50 (µg/ml) subtype A / µg/mL": 10
  },
  {
    "BINDER": "ADI-18938 (antibody, V domains shown, full-length IgG from yeast; also called Antibody Number 291; Ab # 291) VH: EVQLLESGGGLVQPGGSLRLSCAASGFTFSNYWMHWVRQAPGKGLVWVSRISGDGSDTTYADSVEGRFTISRDNARSTLYLQLNSLTGDDTAVYYCARDLWTTSPYFDLWGQGTLVTVSS VL: EIVLTQSPGTLSASIGDRVTITCRASQSLNGWLAWYQQKPGKAPRLLIYKSSSLESGVPSRFSGSASGTEFTLTISSLQPDDFATYYCQQYNSWAFGQGTKVDVK",
    "LIMIT SIGN": "=",
    "Neut IC50 (µg/ml) subtype A / µg/mL": 0.837
  },
  {
    "BINDER": "ADI-18923 (antibody, V domains shown, full-length IgG from yeast) VH: EVQLLESGGGLVKPGGSLRLSCAASGFTFSSYSMNWVRQAPGKGLEWVSSISSSSSYIYYADSVKGRFTISRDNAKNSLYLQMNSLRAEDTAVYYCARDWPNSSSSPNWFDPWGQGTLVTVSS VL: QSVLTQPPSVSGAPGQRVTISCTGSSSNIGAGYDVHWYQQLPGTAPKLLIYGNSNRPSGVPDRFSGSKSGTSASLAITGLQAEDEADYYCQSYDSSLSGFYVFGTGTKLTVL",
    "LIMIT SIGN": "=",
    "Neut IC50 (µg/ml) subtype A / µg/mL": 0.078
  }
]
